Protocol: Compound exposure (PK) in plasma, spleen and tumor of OCI-Ly10 xenograph mice
Type: in vivo, mouse
Applied conditions: C.B. 17 SCID, mouse, spleen; 30 mpk, after 5d dosing; read-out: Spleen C24 h
Measurement type: concentration at 24 h (µM)
Numbers only, in µM.

For this compound ( CC(C)(O)c1cc2nc([C@H]3CC[C@H](CN4CC5(CC(CCNc6cccc7c6C(=O)N(C6CCC(=O)NC6=O)C7=O)C5)C4)CC3)sc2cc1NC(=O)c1cccc(C(F)(F)F)n1 (stereo partly shown) ), measured concentration at 24 h is 59

* * *

Protocol: Compound exposure (PK) in plasma, spleen and tumor of OCI-Ly10 xenograph mice
Type: in vivo, mouse
Applied conditions: C.B. 17 SCID, mouse, tumor; 3 mpk, after 5d dosing; read-out: Tumor C24 h
Measurement type: concentration at 24 h (µM)
One number for each entry, in µM.

For this compound ( CC(C)(O)c1cc2nc([C@H]3CC[C@H](CN4CC5(CC(CCNc6cccc7c6C(=O)N(C6CCC(=O)NC6=O)C7=O)C5)C4)CC3)sc2cc1NC(=O)c1cccc(C(F)(F)F)n1 (stereo partly shown) ), measured concentration at 24 h is 0.43

# credit: patent US11857535B2
